Protocol details: Cell toxicity (CC50) in EV71 assay
Measurement parameters: EV71 CC50
// returns 0.0 unless CC50 is strictly below 70 µM, in which case 1.0

# Smiles input, Qualitative label
measured = [
    ("COc1ccc(-c2sc(NC(C)(C)c3ccccc3)nc2C)cc1S(=O)(=O)NC1CCN(C=O)CC1", 1.0),
    ("COc1ccc(-c2sc(NC(C)(C)C3CCOCC3)nc2C)cc1S(=O)(=O)Nc1ncc[nH]1", 0.0),
    ("COc1ccc(-c2sc(NC(C)(C)c3ncccn3)nc2C)cc1S(=O)(=O)Nc1c(C)cccc1F", 0.0),
    ("COc1ccc(-c2sc(NC(C)(C)C3CCOCC3)nc2C)cc1S(=O)(=O)Nc1ccc(Br)nc1F", 1.0),
    ("COc1ccc(-c2sc(NC(C)(C)C3CCOCC3)nc2C)cc1S(=O)(=O)Nc1cccnc1C(F)(F)F", 0.0),
    ("COc1ccc(-c2sc(NC(C)(C)C3CCN(C(C)=O)CC3)nc2C)cc1S(=O)(=O)Nc1ccc(F)cc1Cl", 1.0),
    ("COc1ccc(-c2sc(NC(C)(C)C3CCOCC3)nc2C)cc1S(=O)(=O)Nc1ccc(F)cc1Cl", 1.0),
    ("COc1ccc(-c2sc(NC(C)(C)C3CCCCC3)nc2C)cc1S(=O)(=O)Nc1c(C)cccc1F", 0.0),
    ("COc1ccc(-c2sc(NC(C)(C)C3CCOCC3)nc2C)cc1S(=O)(=O)NC1CCS(=O)(=O)CC1", 1.0),
    ("COc1ccc(-c2oc(NC(C)(C)c3ccccc3)nc2C)cc1S(=O)(=O)Nc1ccncc1C", 1.0),
    ("COc1ccc(-c2sc(NC(C)(C)C3CCOCC3)nc2C)cc1S(=O)(=O)Nc1ncccc1C", 0.0),
    ("COc1ccc(-c2sc(NC3(C4CCOCC4)CC3)nc2C)cc1S(=O)(=O)Nc1ccccc1Cl", 1.0),
    ("COc1ccc(-c2sc(NC3(C4CCOCC4)CC3)nc2C)cc1S(=O)(=O)Nc1ccc(Cl)cc1Cl", 1.0),
    ("COc1ccc(-c2sc(NC(C)(C)c3ccncc3)nc2C)cc1S(=O)(=O)Nc1c(C)cccc1F", 1.0),
]

----------
Protocol details: Cell toxicity (CC50) in EV68 assay
Measurement parameters: EV68 CC50
Experimental endpoint: CC50

# Smiles input, Experimental endpoint, Assay result
rows = [
    ("COc1ccc(-c2oc(NC(C)(C)c3cccnc3)nc2C)cc1S(=O)(=O)Nc1ccncc1C", "CC50", "100 µM"),
    ("COc1ccc(-c2sc(NC(C)(C)C3CCOCC3)nc2C)cc1S(=O)(=O)Nc1c(C)cccc1F", "CC50", "18.2 µM"),
    ("COc1ccc(-c2sc(NC(C)(C)C3CCNCC3)nc2C)cc1S(=O)(=O)Nc1ccc(F)cc1Cl", "CC50", "2.23 µM"),
    ("COc1ccc(-c2sc(NC(C)(C)C3CCN(C(C)=O)CC3)nc2C)cc1S(=O)(=O)Nc1cccnc1C", "CC50", "94.8 µM"),
    ("COc1ccc(-c2sc(NC(C)(C)c3ccccc3)nc2C)cc1S(=O)(=O)NC1CCN(C(C)=O)CC1", "CC50", "100 µM"),
    ("COc1ccc(-c2oc(NC(C)(C)c3ccccc3)nc2C)cc1S(=O)(=O)Nc1ccncc1C", "CC50", "44.5 µM"),
    ("COc1ccc(-c2sc(NC(C)(C)C3CCOCC3)nc2C)cc1S(=O)(=O)Nc1ccc(NC(C)=O)cc1", "CC50", "42.7 µM"),
]

Value source: patent US20250326725A1
